Numbers sourced from PubChem BioAssay (NCI).

Listed here: items and their measured growth.
system: OVCAR-3 ovarian; experiment: NCI-60 one-dose screen, 48 h (100 = growth as untreated, 0 = no growth, -100 = all killed); conditions: 10 µM unless noted
The panel holds about 83,000 compounds, 20% with a hit somewhere; the sample as a whole holds those more often.

Entry smiles: O=C(Nc1ccc(Cl)cc1)Nc1nc2ccc([N+](=O)[O-])cc2s1
Value unit: %
growth: -26.6
--
Entry smiles: O=C(O)CNS(=O)(=O)c1ccc(Oc2ccc(S(=O)(=O)NCC(=O)O)cc2)cc1
Value unit: %
growth: 104
--
Entry smiles: O=C(CN1CCN(c2cc(=O)n(-c3ccccc3)c3ccccc23)CC1)Nc1ccc([N+](=O)[O-])cc1
Value unit: %
growth: 90.9
